Recorded ADCC cytotoxic activity (51Cr release) on RPM11666 values for a group of binders are listed next.
Tgt: T1, CAPRIN-1 protein expressed on the membrane surface of human cancer cells (human, UniProt Q14444 2-709)
T1 sequence (looked up): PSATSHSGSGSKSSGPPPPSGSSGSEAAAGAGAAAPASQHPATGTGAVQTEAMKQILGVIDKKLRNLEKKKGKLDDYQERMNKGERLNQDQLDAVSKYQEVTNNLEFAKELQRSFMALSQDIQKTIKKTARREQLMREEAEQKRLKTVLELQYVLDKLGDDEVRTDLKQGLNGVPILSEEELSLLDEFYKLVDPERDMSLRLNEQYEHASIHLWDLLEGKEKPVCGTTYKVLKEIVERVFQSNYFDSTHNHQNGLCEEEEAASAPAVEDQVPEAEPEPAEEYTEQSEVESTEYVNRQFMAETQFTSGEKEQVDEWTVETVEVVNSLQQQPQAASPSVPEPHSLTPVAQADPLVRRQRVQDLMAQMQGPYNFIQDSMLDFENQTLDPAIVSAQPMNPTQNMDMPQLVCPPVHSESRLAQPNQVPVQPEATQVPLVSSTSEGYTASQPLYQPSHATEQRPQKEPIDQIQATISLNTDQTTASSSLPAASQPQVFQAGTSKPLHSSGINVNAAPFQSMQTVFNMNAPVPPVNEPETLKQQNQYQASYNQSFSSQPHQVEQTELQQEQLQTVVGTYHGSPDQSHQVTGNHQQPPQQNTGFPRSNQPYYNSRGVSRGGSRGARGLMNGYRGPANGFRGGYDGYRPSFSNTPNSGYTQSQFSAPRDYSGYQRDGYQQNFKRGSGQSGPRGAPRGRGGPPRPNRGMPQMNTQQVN
Measurement protocol: cell-based or functional assay

### Prompt Please list ADCC cytotoxic activity (51Cr release) on RPM11666 recorded for the binder humanized antibody #8 (antibody, V domains shown) VH: QSLVESGGGLVQPGGSLRLSCAASGFSLSSHSLGWVRQAPGKGLEWIGDIRSGGSAYYANWAKGRFTISRTSSKNTVYLQMNSLRAEDTAVYFCTRTNGPSDLTNRLDLWGQGTLVTVSS VL: QVLTQSPSSLSASVGDRVTINCQASQSLYNNENLAWFQQKPGKVPKRLIYGASTLASGVSSRFSGSGSGTEFTLTISSLQCEDFAIYYCLGEFSCGSADCFAFGGGTKVEIK
### Response ≥ 30%

### Prompt Please list ADCC cytotoxic activity (51Cr release) on RPM11666 recorded for the binder humanized antibody #5 (antibody, V domains shown) VH: EVQLVESGGGLVQPGGSLRLSCAASGFSLSSHSLGWVRQAPGKGLEWIGDIRSGGSAYYANWAKGRFTISRDNSKNTLYLQMNSLRAEDTAVYFCTRTNGPSDLTNRLDLWGQGTLVTVSS VL: EQVLTQSPSSLSASVGDRVTINCQASQSLYNNENLAWFQQKPGKVPKRLIYGASTLASGVSSRFSGSGSGTEFTLTISNLQPEDFAIYYCLGEFSCGSADCFAFGGGTKVEIK
### Response ≥ 36%
